System: CAKI-1 renal
EXPERIMENTAL_PROTOCOL: NCI-60 one-dose screen, 48 h (100 = growth as untreated, 0 = no growth, -100 = all killed)
APPLIED_CONDITIONS: 10 µM unless noted
About 83,000 compounds went through this panel and 20% of them were active in at least one assay; those are over-represented in the sample as a whole.
The label is true for growth below 90% and false for growth equal to or exceeding 90%.

Find out if reported growth for COc1ccccc1Nc1cc(O)c2c(=O)cc(-c3ccccc3)oc2c1 is less than 90%
true

Cool, now O=S(=O)(O)c1cc(O)c2c(N=Nc3ccc(Nc4ccccc4)c4c(S(=O)(=O)O)cccc34)cc(S(=O)(=O)O)cc2c1
false

Cool, now COc1cc(C2CC(c3cccc(Nc4ccncc4)c3)=NN2c2ccc(Cl)cc2)cc(OC)c1OC (centres undefined)
true

Cool, now COc1ccc(C(O)c2cc3c(N)c(C(=O)Nc4cccc(Br)c4C)sc3nc2C)cc1 (centres undefined)
true

Cool, now CCCCCCCCCCCCCCCC(=O)OC[C@@]1(O)C[C@@]23CC[C@@H]4C(C)(C)[C@H](O)CC[C@@]4(C)[C@@H]2CC[C@H]1C3
false

Cool, now O=C(O)c1ccc[n+](CC(=O)N2CCN(c3cc4c(cc3F)c(=O)c(C(=O)O)cn4C3CC3)CC2)c1
false

Cool, now COc1cc(NCC(O)CN(CC(C)C)CC(C)C)c2nc(C)ccc2c1 (centres undefined)
true

Cool, now CCCNC(=O)Oc1ccc(/C(=C(\C)c2ccccc2)c2ccc(OCCN3CCCCC3)cc2)cc1
true

Cool, now COc1ccc(C(O)c2cc3c(N)c(C(=O)Nc4cccc(OC)c4)sc3nc2C)cc1 (centres undefined)
true

Cool, now NC(=O)c1ncn(C2OC(CO)C(O)C2O)n1 (centres undefined)
false

Cool, now O=S(=O)(c1cccc(NC2=Nc3cccc4cccc2c34)c1)N1CCCC1
true

Cool, now O=C(CCN1CCCC1)Nc1ccc2c(NCc3ccc(F)cc3)c3ccccc3nc2c1
true

Cool, now CS(=O)(=O)OCCN(CCOS(C)(=O)=O)c1ccc(/C=N/Nc2ccc([N+](=O)[O-])cc2[N+](=O)[O-])cc1
true

Cool, now Cc1cc(Nc2cccc(C(F)(F)F)c2)n2c(nc3ccccc32)c1C#N
true

Cool, now c1ccc2c(-c3c4ccsc4cc4[nH]c5ccccc5c34)c[nH]c2c1
true

Cool, now CN1CCN(Cc2ccc(NC(=O)c3cncc(C#Cc4cnccc4C(F)(F)F)c3)cc2C(F)(F)F)CC1
false

Cool, now C=C(C)[C@@H]1CC[C@]2(C(=O)NCCCN(CCC#N)CCC#N)CC[C@]3(C)[C@H](CC[C@@H]4[C@@]5(C)CCC(=O)C(C)(C)[C@@H]5CC[C@]43C)[C@@H]12
false

Cool, now c1ccc(N2N=C(c3cccc(Nc4ccncc4)c3)CC2c2ccc3c(c2)OCO3)cc1 (centres undefined)
true

Cool, now CC(=O)c1c[nH]c2ccc(-c3ccnc(Nc4ccc(NC(=O)C5CCCC5)c(CN5CCOCC5)c4)n3)cc12
true

Cool, now CC1=NNC(=O)C1CCC(=O)N/N=C(\C)c1ccc2ccccc2c1 (centres undefined)
false

Cool, now COc1ccc(/C=N/C2=C(C#N)C(c3ccccc3[N+](=O)[O-])c3ccc4ccccc4c3O2)cc1 (centres undefined)
true

Cool, now CN(C)C(C(N)=O)c1ccc(Cl)cc1 (centres undefined)
false

Cool, now Clc1ccc(N2N=C(c3cccc(Nc4ccncc4)c3)CC2c2ccc3c(c2)OCO3)cc1 (centres undefined)
true

Cool, now N#Cc1ccc(-c2ccc3c(c2)NC(=O)/C3=C\c2ccc[nH]2)cc1
true

Cool, now COc1cc(C2CC(c3cccc(Nc4ccncc4)c3)=NN2C(C)=O)cc(OC)c1OC (centres undefined)
true

Cool, now CCCCOc1ccc(/C=N/Nc2cc(C)nc3ccc(Cl)cc23)cc1
true

Cool, now CC(N)C(=O)NNc1n[nH]c(=S)n1N (centres undefined)
false

Cool, now COc1ccc(-c2ncc(-c3ccccc3)[nH]2)cc1OC
false

Cool, now CCOC(=O)Oc1c(OC)cc(C(=O)O[C@@H]2C[C@@H]3CN4CCc5c([nH]c6cc(OC)ccc56)[C@H]4C[C@@H]3[C@H](C(=O)OC)[C@H]2OC)cc1OC
true

Cool, now COc1ccc(OC)c(/C=C/[C@H]2O[C@@H](C)[C@H](O)[C@@H]2O)c1
false

Cool, now Nc1c(Cl)cc([N+](=O)[O-])cc1Br
true

Cool, now Clc1cc(Cl)cc(N2N=C(c3cccc(Nc4ccncc4)c3)CC2c2ccccc2)c1 (centres undefined)
true

Cool, now COc1nccnn1
false

src = PubChem BioAssay (NCI)
